The values you see were collected from ChEMBL document CHEMBL1142415.

Please go through the items and note down their inhibition at 128 µM.
tested on: Mycobacterium tuberculosis; assay: Antibacterial activity against Mycobacterium tuberculosis at 128 uM by MABA assay; assay type: functional
I'd appreciate it if you wrote the number followed by its unit.

Query: Entry CC(C)(C)C1CCc2onc(C(=O)Nc3cnn(Cc4ccc(C(=O)O)cc4)c3)c2C1 (centres undefined) : reported inhibition at 128 µM = ?
Response: 41%

Query: Entry CC(C)(C)C1CCc2onc(C(=O)Nc3cnn(Cc4ccc(C(=O)NCc5ccccc5)cc4)c3)c2C1 (centres undefined) : reported inhibition at 128 µM = ?
Response: 54%

Query: Entry COc1ccc(Cc2noc(NC(=O)c3noc4c3CC(C(C)(C)C)CC4)c2C(N)=O)cc1 (centres undefined) : reported inhibition at 128 µM = ?
Response: 14%

Query: Entry CC(C)(C)C1CCc2onc(C(=O)Nc3cnn(Cc4ccc(F)cc4)c3)c2C1 (centres undefined) : reported inhibition at 128 µM = ?
Response: 0%

Query: Entry CC(C)(C)C1CCc2onc(C(=O)Nc3cnn(Cc4ccc(F)cc4F)c3)c2C1 (centres undefined) : reported inhibition at 128 µM = ?
Response: 56%

Query: Entry CC(C)(C)C1CCc2onc(C(=O)Nc3cnn(Cc4ccc(C(=O)NCCc5ccccc5)cc4)c3)c2C1 (centres undefined) : reported inhibition at 128 µM = ?
Response: 19%

Query: Entry CC(C)(C)C1CCc2onc(C(=O)Nc3cnn(Cc4ccccc4I)c3)c2C1 (centres undefined) : reported inhibition at 128 µM = ?
Response: 70%

Query: Entry O=C(Nc1cnn(Cc2ccc(Cl)cc2Cl)c1)c1noc2c1CCCC2 : reported inhibition at 128 µM = ?
Response: 70%

Query: Entry Cc1ccccc1Cn1cc(NC(=O)c2noc3c2CC(C(C)(C)C)CC3)cn1 (centres undefined) : reported inhibition at 128 µM = ?
Response: 46%
